- protocol: Restrictive medium S. cerevisiae growth inhibition, OD615, pilot screen of yeast lifespan reduction project, restrictive growth control (AID 706);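 further: modified DeaD lifespan yeast strain shifted to restrictive glucose medium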
- cond: OD615, 48 h, at 10 µM, stronger effect = higher value
property: growth inhibition (%)
Could you give me the number in %? Just the number is fine.

compound: CCc1ccc(NC(=O)c2cnc3n(c2=O)CCS3)cc1
growth inhibition (%): 0.895

Ask: State the recorded growth inhibition for this entry: CC1CCCCC1NS(=O)(=O)c1ccc(S(=O)(=O)N2CCN(CCC#N)CC2)cc1 (stereo unspecified)
Result: -2.72

Ask: Tell me the measured growth inhibition of CC(C)c1nc2cc3ccccc3cc2[nH]1 , please.
Result: -20.5

Ask: Quick check: growth inhibition of CSCCC(/C(O)=C(\C#N)c1nc2ccccc2[nH]1)N1C(=O)c2ccccc2C1=O (stereo unspecified) ?
Result: -11.8

Ask: I would be grateful if you could share the reported growth inhibition for COc1ccc(OC)c2sc(NC(=O)C(C)C)nc12 .
Result: -18

Ask: Which growth inhibition is listed for COc1cc(CN2CCN(CCOCCO)CC2)cc(OC)c1OC ?
Result: -8.52

###

- protocol: growth suppression of PTEN-deleted HCT116, pilot screen, cell-based, HCT116 clonal line, CellTiter-Glo (AID 824);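 further: 0% = 20 µM Hyamine control and 100% = vehicle cell control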
- cond: 60 h, at 10 µM, stronger effect = lower value
Records with an inconclusive call do not appear.
property: viability (%)
I only need the number, in %, no unit after it.

compound: CCOC(=O)c1nn(-c2ccccc2)c(=O)c2c(N)scc12
viability [%]: 107

compound: O=C(CN1C(=O)CCC1=O)Nc1nc(-c2ccccn2)cs1
viability [%]: 101

compound: Cc1cc(C(F)(F)F)nc(NCc2ccc(F)cc2)n1
viability [%]: 86.7

compound: COc1cccc(NS(=O)(=O)c2cn(C)c(=O)n(C)c2=O)c1
viability [%]: 92.9

compound: COc1ccc(-n2c3c(cc(C(=O)N4CCC(C)CC4)c2=O)C(=O)CC(C)(C)C3)cc1
viability [%]: 101

Next compound, viability to be filled in.
Ask: Reported viability for O=C(Nc1sc2c(c1C(=O)O)CCCC2)c1cccs1 : what is it?
Result: 57

###

- protocol: inhibitors of the yeast RAM network, pilot screen, dse1pr::URA3 reporter, 5-FOA selection (AID 869);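 further: 0% = DMSO wells with no growth and 100% = 10 µM 1-NA-PP1 with full growth; RAM network block rescues cells from 5-FOA so hits raise OD615 growth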
- cond: S. cerevisiae dse1pr::URA3 5-FOA growth, OD615, 2 d; at 10 µM; stronger effect = higher value; strain carries analog-sensitive mutant Cbk1 kinase
Assign yes whenever inhibition does not fall below 1%; assign no whenever it does.

Some entries whose results are on file:
compound: COc1ccc(CCNS(=O)(=O)c2ccc3c(c2)oc(=O)n3C)cc1OC
cat: yes

compound: Cc1cccc(N2CCN(C(=O)C3CCCN(S(=O)(=O)c4cccc5cccnc45)C3)CC2)c1C (stereo unspecified)
cat: yes

Ask: Exam item: decide whether the reported inhibition for O=C(c1csc2c1CCCC2)n1cccn1 is at least 1%.
Result: yes

Ask: In plain terms: is recorded inhibition at least 1% for Nc1sc2c(c1C(=O)NC1CCS(=O)(=O)C1)CCCC2 (stereo unspecified) ?
Result: yes

Ask: Determine whether this compound has inhibition no lower than 1%: CC(CN(C)Cc1ccccc1)OC(=O)C1COc2ccccc2O1 (stereo unspecified)
Result: yes

Ask: Reported inhibition reaches at least 1% for CC(=O)NC(CCS(C)(=O)=O)C(=O)Nc1ccc2c(c1)OCO2 (stereo unspecified) ?
Result: no
